Biological target: human mesothelin (MSLN) (human) (UniProt Q13421)
Assay: BLI (Octet), bsAb in 1+1 Fab-scFv-Fc format
Endpoint: Response

>  <Binder>
XENP32558 (bispecific antibody, part only; not given: anti-CD3 scFv-Fc arm, constant regions, V domains shown, not shown: another chain or arm of the molecule; a dimerising Fc or GST; small tags and cut ends) VH: QVQLVQSGAEVKKPGASVKVSCKASGYTFTSYWMHWVRQAPGQGLEWMGMIHPNSDNTIYYEKFQGRVTMTVDKSISTAYMELSRLRSDDTAVYYCAIIITPVVPRFDYWGQGTLVTVSS VL: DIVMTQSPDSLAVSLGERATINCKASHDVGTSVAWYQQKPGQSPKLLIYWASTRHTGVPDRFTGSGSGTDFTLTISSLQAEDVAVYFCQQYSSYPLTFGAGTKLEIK

>  <Endpoint>
Response

>  <Result>
1.17

$$$$
>  <Binder>
XENP32570 (bispecific antibody, part only; not given: anti-CD3 scFv-Fc arm, constant regions, V domains shown, not shown: another chain or arm of the molecule; a dimerising Fc or GST; small tags and cut ends) VH: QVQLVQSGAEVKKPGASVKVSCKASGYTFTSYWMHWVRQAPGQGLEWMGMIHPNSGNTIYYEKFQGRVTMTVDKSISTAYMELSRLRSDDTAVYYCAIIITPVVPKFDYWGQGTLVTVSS VL: DIVMTQSPDSLAVSLGERATINCKASHSVGTSVAWYQQKPGQSPKLLIYWASTRHTGVPDRFTGSGSGTDFTLTISSLQAEDVAVYFCQQYSSYPLTFGAGTKLEIK

>  <Endpoint>
Response

>  <Result>
0.981

$$$$
>  <Binder>
XENP32554 (bispecific antibody, part only; not given: anti-CD3 scFv-Fc arm, constant regions, V domains shown, not shown: another chain or arm of the molecule; a dimerising Fc or GST) VH: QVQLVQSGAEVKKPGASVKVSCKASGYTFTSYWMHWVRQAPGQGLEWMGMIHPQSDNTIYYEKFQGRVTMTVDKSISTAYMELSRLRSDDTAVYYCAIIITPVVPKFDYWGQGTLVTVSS VL: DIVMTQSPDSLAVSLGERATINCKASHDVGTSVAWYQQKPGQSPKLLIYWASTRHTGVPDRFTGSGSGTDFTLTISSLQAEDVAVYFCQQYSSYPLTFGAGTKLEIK

>  <Endpoint>
Response

>  <Result>
1.13

$$$$

Entry source: patent US20230340128A1
